# TEST_SUMMARY: Lipophilicity log D of the compound at pH 7.4
# Format: physicochemical
# CONDITION: buffer
MEASUREMENT_LABEL: logD

Ask: Report logD, nothing else, for this compound: `C/C(=C\C(=O)N1CCc2c(Cl)c(O)c(O)c(Cl)c2C1)c1ccc(C(F)(F)F)nc1`
Reply: 3.5

----------
# TEST_SUMMARY: Aqueous solubility of the compound
# Format: physicochemical
MEASUREMENT_LABEL: solubility (µM)
Record the value in µM, omitting the unit from your answer.

Ask: Supply reported solubility belonging to this molecule: `C/C(=C\C(=O)N1CCc2c(Cl)c(O)c(O)c(Cl)c2C1)c1ccc(C(F)(F)F)nc1`
Reply: 18

All values here come from ChEMBL document CHEMBL1221309.
